test system: L929 mouse fibroblast cells; test: Cytotoxicity, MTT assay; assay type: cell-based; conditions: 800 µM, L929 cells, 24 h, Exp. 2
Where no end group is shown, it is not given here.
TEST_READOUT: Cell viability (%)
Could you give me the number in %? Just the number is fine.

Below, 5 substances whose answers are already recorded.
SUBSTANCE | Cell viability (%)
FIGAIARLLSKI [BmKn-21] | 1.699
FIGAIARLLSK [BmKn-22] | 75.218
FIGAIAR [BmKn-26] | 87.113
FIGAIARL [BmKn-25] | 93.165
FIGAIARLLS [BmKn-23] | 84.400

stdin: Would you mind telling me what Cell viability (%) value was observed for FIGAIARLL [BmKn-24] ?
stdout: 81.538

stdin: Would you mind telling me what Cell viability (%) value was observed for FIGAIARLLSKIF [BmKn-2, reference compound] ?
stdout: 2.027

###

system: L929 mouse fibroblast cells; assay: Cytotoxicity, MTT assay; assay type: cell-based; settings: 800 µM, L929 cells, 24 h, Exp. 3
Where no end group is shown, it is not given here.
Cell viability (%) listing for selected substances.
Could you give me the number in %? Just the number is fine.

Below, 3 substances whose answers are already recorded.
SUBSTANCE | RESULT_UNIT | VALUE
FIGAIARLLSKIF [BmKn-2, reference compound] | % | 1.988
FIGAIAR [BmKn-26] | % | 79.724
FIGAIARLLSKI [BmKn-21] | % | 1.835

stdin: Would you mind telling me what Cell viability (%) value was observed for FIGAIARL [BmKn-25] ?
stdout: 83.012

stdin: Would you mind telling me what Cell viability (%) value was observed for FIGAIARLL [BmKn-24] ?
stdout: 83.751

stdin: Would you mind telling me what Cell viability (%) value was observed for FIGAIARLLS [BmKn-23] ?
stdout: 88.135

stdin: Would you mind telling me what Cell viability (%) value was observed for FIGAIARLLSK [BmKn-22] ?
stdout: 94.787

###

Bacterial growth, Log10 CFU/mL listing for selected substances.
test system: P. aeruginosa PAO1; assay: Growth assay, standard plate counts; format: cell-based, Pseudomonas aeruginosa; settings: 800 µM, 24 h; Exp. 2 (untreated control 9.198)
Where no end group is shown, it is not given here.

Below, 5 substances whose answers are already recorded.
SUBSTANCE | Bacterial growth, Log10 CFU/mL
FIGAIAR [BmKn-26] | 9.213 Log10 CFU/mL
FIGAIARLLSKIF [BmKn-2, reference compound] | 6.448 Log10 CFU/mL
FIGAIARL [BmKn-25] | 9.288 Log10 CFU/mL
FIGAIARLLSK [BmKn-22] | 9.292 Log10 CFU/mL
FIGAIARLLSKI [BmKn-21] | 6.314 Log10 CFU/mL

stdin: Would you mind telling me what Bacterial growth, Log10 CFU/mL value was observed for FIGAIARLL [BmKn-24] ?
stdout: 9.273 Log10 CFU/mL

stdin: Would you mind telling me what Bacterial growth, Log10 CFU/mL value was observed for FIGAIARLLS [BmKn-23] ?
stdout: 9.359 Log10 CFU/mL

###

system: P. aeruginosa PAO1; experiment: Growth assay, standard plate counts; assay type: cell-based, Pseudomonas aeruginosa; settings: 800 µM, 24 h; Exp. 1 (untreated control 9.082)
Where no end group is shown, it is not given here.
TEST_READOUT: Bacterial growth, Log10 CFU/mL (Log10 CFU/mL)
Could you give me the number in Log10 CFU/mL? Just the number is fine.

Below, 2 substances whose answers are already recorded.
SUBSTANCE | Bacterial growth, Log10 CFU/mL [Log10 CFU/mL]
FIGAIAR [BmKn-26] | 9.213
FIGAIARLLSK [BmKn-22] | 9.235

stdin: Would you mind telling me what Bacterial growth, Log10 CFU/mL value was observed for FIGAIARL [BmKn-25] ?
stdout: 9.255

The measured values listed here are drawn from paper PMC6568410.
